Tested on: MCF7 breast
Measurement protocol: NCI-60 one-dose screen, 48 h
Measurement context: 10 µM
Compounds without any hit were thinned out: in the full panel of roughly 83,000, 20% have a hit. Calls of active or inactive are those of the source. Rule for the calls: active = growth percent below 10; inactive = the rest.
Outcomes: active, inactive

[
  {
    "Molecule": "O=C(CCCSc1nc(-c2ccc(Cl)cc2)cc(-c2ccc(Cl)cc2)n1)NO",
    "System tested": "MCF7 breast",
    "Cat": "active"
  },
  {
    "Molecule": "O=C(Nc1nc(-c2ccccc2)nc2c1sc(=S)n2-c1ccccc1)C(F)(F)F",
    "System tested": "MCF7 breast",
    "Cat": "inactive"
  },
  {
    "Molecule": "COc1cc(/C=C/c2cc(/C=C/c3ccc(O)c(OC)c3)nc(N)n2)ccc1O",
    "System tested": "MCF7 breast",
    "Cat": "active"
  },
  {
    "Molecule": "COc1ccc(-c2cc(-c3cc(OC)ccc3OC)nc(N)c2C#N)cc1",
    "System tested": "MCF7 breast",
    "Cat": "inactive"
  },
  {
    "Molecule": "COc1ccc(CCN2CCC(Nc3nc4ccccc4n3Cc3ccc(F)cc3)CC2)cc1",
    "System tested": "MCF7 breast",
    "Cat": "active"
  },
  {
    "Molecule": "COc1cc(C(=O)/C(C)=C/c2c[nH]c3ccccc23)cc(OC)c1OC",
    "System tested": "MCF7 breast",
    "Cat": "inactive"
  },
  {
    "Molecule": "CCOc1ccccc1/C=N/N1CCCCCC1",
    "System tested": "MCF7 breast",
    "Cat": "inactive"
  },
  {
    "Molecule": "C=CCn1c(SCC(=O)Nc2ccc(C(=O)/C=C/c3cc(OC)c(OC)c(OC)c3)cc2)nnc1-c1cc(-c2ccc(Cl)cc2)nc2ccccc12",
    "System tested": "MCF7 breast",
    "Cat": "inactive"
  },
  {
    "Molecule": "O=C(CCCSc1nc(-c2ccccc2)cc(-c2ccc(Cl)cc2)n1)NO",
    "System tested": "MCF7 breast",
    "Cat": "active"
  },
  {
    "Molecule": "O=C1/C=C/[C@@H](O)[C@@H]2C[C@@H](O)C[C@H]2/C=C/CCC[C@H](CCc2ccc(NC(=S)Nc3ccc4c(c3)C(=O)OC43c4ccc(O)cc4Oc4cc(O)ccc43)cc2)O1",
    "System tested": "MCF7 breast",
    "Cat": "active"
  },
  {
    "Molecule": "NC(N)=N/N=C(\\c1ccccc1)C(O)c1ccccc1 (stereo not drawn)",
    "System tested": "MCF7 breast",
    "Cat": "inactive"
  },
  {
    "Molecule": "CCOC(=O)c1cc(C(=O)c2cc(OC)cc(OC)c2)n2ncc3ccccc3c12",
    "System tested": "MCF7 breast",
    "Cat": "inactive"
  },
  {
    "Molecule": "O=C1/C=C/[C@@H](O)[C@@H]2C[C@@H](O)C[C@H]2/C=C/CCC[C@@H](C(F)(F)F)O1",
    "System tested": "MCF7 breast",
    "Cat": "inactive"
  }
]
